The origin of these recorded values is patent US9663460B2.

- targetOrTestSystem: CCR2 (Homo sapiens (Human), UniProt P41597)
- Sequence (P41597 whole entry, species assumed): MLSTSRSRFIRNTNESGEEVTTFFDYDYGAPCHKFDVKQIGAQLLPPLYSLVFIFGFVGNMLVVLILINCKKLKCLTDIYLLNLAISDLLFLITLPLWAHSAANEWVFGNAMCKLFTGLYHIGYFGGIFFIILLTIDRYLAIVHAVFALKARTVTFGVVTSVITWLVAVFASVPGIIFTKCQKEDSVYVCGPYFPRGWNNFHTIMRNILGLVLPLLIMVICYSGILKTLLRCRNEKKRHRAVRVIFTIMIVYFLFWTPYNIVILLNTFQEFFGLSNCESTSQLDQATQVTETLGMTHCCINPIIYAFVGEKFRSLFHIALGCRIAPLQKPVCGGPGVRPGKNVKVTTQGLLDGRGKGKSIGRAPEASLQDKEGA
- assayExplanation: Calcium activity assayed on the FLIPR Tetra in HEK-Gqi5 cells stably expressing CCR2
- Type: cell-based
- runParameters: FLIPR Tetra calcium assay
Reported CCR2 % ANTAGONISM values are given for each entry in this list.
measurementType: CCR2 % ANTAGONISM

[
  {
    "compound": "CS(=O)(=O)c1ccc(Cl)cc1NS(=O)(=O)c1ccc(I)cc1",
    "measurementType": "CCR2 % ANTAGONISM",
    "recordedValue": "92%"
  },
  {
    "compound": "O=S(=O)(Cc1cccnc1)c1ccc(Cl)cc1NS(=O)(=O)c1cc2ccccc2o1",
    "measurementType": "CCR2 % ANTAGONISM",
    "recordedValue": "93%"
  },
  {
    "compound": "CN(C)C(=O)CCS(=O)(=O)c1ccc(Cl)cc1NS(=O)(=O)c1ccc(Cl)c(C(F)(F)F)c1",
    "measurementType": "CCR2 % ANTAGONISM",
    "recordedValue": "93%"
  },
  {
    "compound": "Nc1cccc(C[S+]([O-])c2ccc(Cl)cc2NS(=O)(=O)c2cc3ccccc3o2)c1 (stereo not shown)",
    "measurementType": "CCR2 % ANTAGONISM",
    "recordedValue": "96%"
  }
]
